Tested on: HT29 colon
Test: NCI-60 one-dose screen, 48 h
Details: 10 µM unless noted
Description: Growth inhibition of the HT29 human tumor cell line is measured as a screen for anti-cancer activity. Cells are grown in 96 well plates and exposed to the test compound for 48 hours. Compounds are tested at a single concentration, which is 10^-5 M for most compounds. The reported endpoint is percent growth (GI% or GIPRCNT), where numbers from 0 - 100% represent growth inhibition, and numbers from -100% - 0 represent cell death. For example, a value of 40 represents 60% growth inhibition. […]
Compounds without any hit were thinned out: in the full panel of roughly 83,000, 20% have a hit. The source made the active and inactive calls. The calls were made as follows: active = growth percent below 10; inactive = the rest.
Hi there, use one of these labels in your reply, thanks! Yes = active, No = inactive

# count of solved cases: 3
1) O=c1c2sc3ccccc3c2nnn1-c1ccc(F)c(Cl)c1	No
2) Cc1cc(-c2nnc(/C=C/c3ccc4c(c3)OCO4)o2)n[nH]1	No
3) O=C1CC2(O)CSc3nc(=O)cc(n32)N1 (configuration not stated)	No

Task item: Each compound tested received a call. Report the one for `CC(=O)c1ccc(Nc2nc(Cl)nc(Oc3c(Cl)cccc3Cl)n2)cc1` .
Reply: No

Task item: Hello, I am checking results. What call was entered for `CCOP(=O)(O)OP(=O)(O)OCC` ?
Reply: No

Task item: Hi, sorry to bother you, what did the test record for `C=CCn1c(C)nc2cc(Nc3nc(Nc4ccc5nc(C)n(CC=C)c5c4)nc4ccccc34)ccc21` ?
Reply: No

Task item: What did the test return for `CC(C)N1CCN(c2ccncc2S(=O)(=O)N2CCN(C)CC2)CC1` ?
Reply: No

Task item: So what was the verdict on `CCCCCCCCCCCC1=NC(C)(C)CN1C(C)(C)CO` in this test?
Reply: Yes

Task item: # outcome recorded in this test, key = `CCN(C)CCCOc1ccc(/C(=C(\C)Cc2cccc(OC)c2)c2ccc(OC(C)=O)cc2)cc1`
Reply: No

Task item: Entry O=C1c2ccccc2C2N1CCC1CCc3ccccc3N12 (configuration not stated) : call = ?
Reply: No

Task item: What call does the record list for COc1ccc(C2CC(c3cccc(Nc4ccnc5cc(Cl)ccc45)c3)=NN2c2ccc(Cl)cc2)cc1 (configuration not stated) ?
Reply: No

Task item: What outcome does the record of this test show for `COc1ccc2[nH]c(O)c(/C=c3/ccc4c(c3)N=C(c3ccc(F)cc3)N=4)c2c1` ?
Reply: No

* * *

system: HCT-15 colon; experiment: NCI-60 one-dose screen, 48 h (100 = growth as untreated, 0 = no growth, -100 = all killed); details: 10 µM unless noted
The panel holds about 83,000 compounds, 20% with a hit somewhere; the sample as a whole holds those more often.
Parameter class (string): assigned from measured growth. Ranges: L (below 50%), M (50% to below 90%), H (90% or more)

As a guide, the following entries are already answered.
1) Nc1nc(N)c2cc(CNc3ccc(Cl)c(Cl)c3)ccc2n1	L
2) NC(N)=N/N=C/c1ccccc1	H
3) Clc1ccc(Nc2ncnc3c2sc2ncccc23)c(Cl)c1	L
4) COc1ccc(-n2nc(C(=O)NCC(=O)Nc3nc4cc(OC)ccc4s3)c3ccccc3c2=O)cc1	M
5) N#CC1=C(N)Oc2nc[nH]c(=O)c2C1c1cccs1 (stereo not drawn)	H
6) CCCCCc1c(C)[nH]c(/C=C2\N=C(c3ccc[nH]3)C=C2CC)c1C	L

Task item: Returns: class label. Input: `C=C(CN1CC=CCC1)[C@@H]1CC[C@]2(C(=O)OC)CC[C@]3(C)[C@H](CC[C@@H]4[C@@]5(C)CC[C@H](OC(C)=O)C(C)(C)[C@@H]5CC[C@]43C)[C@@H]12`
Reply: H

Task item: # bin label for CC1=C(C(=O)Nc2ccc(F)cc2)C(c2ccc(Cl)cc2)C2=C(CC(C)(C)CC2=O)N1 (stereo not drawn)
Reply: M

Task item: Which bin, given its growth, does `Nc1ccc(N(O)/C=C2\C=CC=CC2=O)cc1N` occupy?
Reply: M

Task item: Any idea which band CC(=O)c1c(O)c(C)c(O)c2c1OC1=CC(=O)/C(=C(/C)N)C(=O)C12C (stereo not drawn) is in?
Reply: M

Task item: // bin(item) where item = Cc1cc(NC(=O)C2c3ccccc3C(=O)N(CC(C)C)C2c2cccs2)no1 (stereo not drawn)
Reply: L

* * *

tested on: IGROV1 ovarian; assay: NCI-60 one-dose screen, 48 h (100 = growth as untreated, 0 = no growth, -100 = all killed); conditions: 10 µM unless noted
The panel holds about 83,000 compounds, 20% with a hit somewhere; the sample as a whole holds those more often.
Measured quantity: growth (%)
Numeric answer only, unit % assumed.

1. COc1ccc(-c2nn(-c3cccc(Cl)c3)cc2/C=C2\C(=N)N(c3ccccc3)N=C2N)cc1	27.9
2. COc1ccc2nc(C)cc(Nc3ccccc3O)c2c1	44.9
3. CCC(=O)NC(O)C(Cl)(Cl)C(C)Cl (configuration not stated)	99.6
4. CC(=O)O[C@H]1[C@H](CC#CC#CC[C@@H]2C[C@]3(C)[C@H]4CC=C5[C@H]6[C@@H](C)[C@H](C)CC[C@]6(C(=O)NCCCCCCCCN)CC[C@@]5(C)[C@]4(C)CC[C@H]3C(C)(C)[C@H]2OC(C)=O)C[C@]2(C)[C@H]3CC=C4[C@H]5[C@@H](C)[C@H](C)CC[C@]5(C(=O)NCCCCCCCCN)CC[C@@]4(C)[C@]3(C)CC[C@H]2C1(C)C	99.1
5. COc1ccc2c(c1)CCCC21C(=O)Nc2ccccc21 (configuration not stated)	102
6. O=c1[nH]cnc2nc[nH]c12	109
7. COc1cccc(NC(=O)[C@H](C(C)C)n2c(=O)[nH]c3ccccc3c2=O)c1	113
8. COc1ccc(-c2nc(-c3ccccc3OCc3ccccc3OC)nc(C)c2C(C)=O)cc1	89.7

What the record says about CSCCC1NC(=O)C(C(C)=Nc2ccccc2)=C1O (configuration not stated) : growth is 103

Entry `CC(=O)[C@H]1CC[C@H]2[C@@H]3CC[C@H]4CC=CC[C@]4(C)[C@H]3CC[C@]12C` , growth reported as 93.9

// sample `CCCCCNCCCCCNc1cc(OC)cc2cccnc12` , its growth was 98.3

GET /value?item= `O=C(/C=C/c1cn(-c2ccccc2)nc1-c1cccc(Nc2ccnc3cc(Cl)ccc23)c1)c1ccc2c(c1)OCO2` &field=growth returns 96.8

* * *

A collection of molecules and their measured growth
system: IGROV1 ovarian; assay: NCI-60 one-dose screen, 48 h (100 = growth as untreated, 0 = no growth, -100 = all killed); details: 10 µM unless noted
Compounds without any hit were thinned out: in the full panel of roughly 83,000, 20% have a hit.
Respond numerically; units are % and should not be typed.

1. CCc1ccc(Nc2cc(C)c3ccc(O)cc3n2)cc1	53.8
2. Oc1c(-c2cc(C(F)(F)F)[nH]n2)cc(Cl)c(OCc2ccc(Cl)cc2)c1-c1ccc(Cl)c(C(F)(F)F)c1	19.8
3. c1ccc2c(c1)cnc1ccccc12	121

growth measured on COc1cc(NC(C)CCCN)c2ncccc2c1Sc1ccc(Cl)cc1 (centres undefined) = 38.9

Memo: `CCOC(=O)C(Nc1ccccc1)C(=O)OCC` , reported growth: 92.3

The reported growth of the molecule `Cc1cc(-c2nnc(/C=C/c3ccc4c(c3)OCO4)o2)n[nH]1` was 40.7

Per the record, NS(=O)(=O)c1ccc(N2N=C(c3ccc(Br)cc3)CC2c2cn(-c3ccccc3)nc2-c2ccc(Cl)cc2)cc1 (centres undefined) has growth of 93.8

Looking up `CCn1c(CN2CCN(Cc3ccccc3)CC2)nc2cc(NC(=O)c3cccs3)ccc21` , I found its growth recorded as -83

Noted for `COc1ccc(/C=c2\c(=O)n(-c3ccccc3)c3nn4c(=O)c(=O)[nH]nc4n23)cc1` : its growth reads 113

So for `CCCCn1c(C)nc2cc(Nc3nc(Cl)nc4nc[nH]c34)ccc21` , the logged growth turned out to be 70.7

// growth lookup, molecule = `C/C(=N\OC(=O)Nc1cccc(Cl)c1)c1ccccc1` , result: 115

Record summary for CC(C)CC(NC(=O)C(CCCN=C(N)N)NC(=O)OCc1ccccc1)C(=O)NC(CNC(=O)/C=C/c1ccccc1)C(C)C (centres undefined) : reported growth = 88.3

For reference, reported growth for `C=CCOc1c(Br)cc(Br)cc1Br` stands at 30

Summary for this molecule, `COCCn1c(Nc2ccc(C(=O)NO)cc2)nc2ccccc21` : growth is 57.5

* * *

test system: UACC-257 melanoma; assay: NCI-60 one-dose screen, 48 h; conditions: 10 µM unless noted
This is part of a sample that, as a whole, favours compounds with a hit. Of some 83,000 tested, about 20% had one in any assay. Activity calls are given as the source filed them. Rule for the calls: active = growth percent below 10; inactive = the rest.
In this exercise, the only acceptable responses are active, inactive

These solved cases illustrate the format of a correct answer.
1) COc1cc(/C=C/C(=O)c2ccc(NC(=O)CSc3nnc(-c4ccc(Cl)cc4)n3-c3ccccc3)cc2)cc(OC)c1OC	inactive
2) COc1ccc(C2CC(c3cccc(Nc4ccnc5cc(Cl)ccc45)c3)=NN2c2ccccc2)cc1 (stereo not given)	inactive
3) CC1=C(C(=O)Nc2ccc(F)cc2)C(c2ccc(Cl)cc2)C2=C(CC(C)(C)CC2=O)N1 (stereo not given)	inactive

Task item: Give the logged outcome of this assay for the following compound: `O=S(=O)(NCC[C@@H]1C[C@H]1c1ccc2ccccc2c1)c1ccc(C(F)(F)F)cc1`
Reply: inactive

Task item: Hi, do you know how `COC(=O)c1cc(Cl)cc([N+](=O)[O-])c1O` came out in this test?
Reply: inactive

Task item: Write down the call the test reported for this compound. Item: `CCCc1n(Cc2ccc3ccccc3n2)cc[n+]1Cc1ccc2ccccc2c1`
Reply: active
